# Tested on: EKVX NSCLC
# assay-info: NCI-60 one-dose screen, 48 h (100 = growth as untreated, 0 = no growth, -100 = all killed)
# assay-conditions: 10 µM unless noted
The panel holds about 83,000 compounds, 20% with a hit somewhere; the sample as a whole holds those more often. Activity calls are given as the source filed them. Rule for the calls: active = growth percent below 10; inactive = the rest.
measured-quantity: growth

Reported growth ( CC1(C)CC(=O)C(c2c(-c3ccccc3)[nH]c3[nH]c(=S)[nH]c(=O)c23)=C(O)C1 ) = 89.8% (inactive)

Reported growth ( CCOC(=O)/C=C/C(=O)[C@H](CC(C)C)NC(=O)[C@H](Cc1ccccc1)NC(=O)OCc1ccccc1 ) = 100% (inactive)

Reported growth ( Nc1nc(SCc2ccccc2)c2ncn(C3CCCC3)c2n1 ) = 99.6% (inactive)

Reported growth ( Brc1cccc(-c2cc(-c3ccc4c(c3)OCCO4)[nH]n2)c1 ) = 20.3% [25 µM] (inactive)

Reported growth ( COc1ccc(C2Nc3ccccc3-n3cccc32)cc1 (configuration not stated) ) = 68.8% (inactive)

Reported growth ( O=[N+]([O-])c1cccc(-c2nc3sccn3c2-c2ccnc(NCCCNS(=O)(=O)c3ccc(F)cc3)n2)c1 ) = 18.3% (inactive)

Next:
Reported growth ( O=C(O)c1ccc(=O)[nH]n1 ) = 116% (inactive)

---

# Test system: MOLT-4 leukemia
# assay-info: NCI-60 one-dose screen, 48 h (100 = growth as untreated, 0 = no growth, -100 = all killed)
# assay-conditions: 10 µM unless noted
# Method: Growth inhibition of the MOLT-4 human tumor cell line is measured as a screen for anti-cancer activity. Cells are grown in 96 well plates and exposed to the test compound for 48 hours. Compounds are tested at a single concentration, which is 10^-5 M for most compounds. The reported endpoint is percent growth (GI% or GIPRCNT), where numbers from 0 - 100% represent growth inhibition, and numbers from -100% - 0 represent cell death. For example, a value of 40 represents 60% growth inhibition. […]
About 83,000 compounds went through this panel and 20% of them were active in at least one assay; those are over-represented in the sample as a whole.
measured-quantity: growth (%)
A number alone suffices; assume %.

Would you please look over these solved cases?
Reported growth ( CCOC(=O)c1cnc2cc(Cl)c(F)cc2c1Nc1cccc(NS(C)(=O)=O)c1 ) = 99.9

Reported growth ( O=C(O)c1ccc2c(c1Sc1ccccc1)C(=O)c1ccccc1C2=O ) = 113

Reported growth ( O=C1/C(=C\c2cn(C(=O)c3ccc(Cl)cc3)c3ccccc23)c2ccccc2N1c1c(Cl)cccc1Cl ) = 89.6

Reported growth ( CCCCCCCCCCCCS(=O)CC(C)O (stereo not drawn) ) = 96.7

Next:
Reported growth ( O=C1C[C@H](N2C(=O)c3ccccc3S2(=O)=O)C2CO[C@@H]1O2 ) = 79

Reported growth ( CNc1cc2nc3cc(NC)c(C)cc3cc2cc1C ) = 1.13

Reported growth ( Cc1ccc(NC(=O)c2sc3nc4c(cc3c2N)C(=O)CCC4)cc1C ) = 27.6

Reported growth ( CS(=O)CCCCCN=C=S (stereo not drawn) ) = -13

---

# Tested on: CAKI-1 renal
# assay-info: NCI-60 one-dose screen, 48 h
# assay-conditions: 10 µM unless noted
The panel holds about 83,000 compounds, 20% with a hit somewhere; the sample as a whole holds those more often. Activity calls are given as the source filed them. Rule for the calls: active = growth percent below 10; inactive = the rest.
Output constraint: value belongs to label 1 for active, label 0 for inactive

Sample answers from the record:
Write down the call the test reported for this compound. Item: CN1CCCCC1CCN1c2ccccc2Sc2ccc(Br)cc21 (stereo not given)
label 0

Write down the call the test reported for this compound. Item: CC/C=C\C[C@H](O)C/C=C1/C(=O)C=C[C@@H]1C/C=C\CCCC(=O)OC(C)C
label 1

Write down the call the test reported for this compound. Item: COc1ccccc1-c1ccc2c(N)c(C(=O)c3ccc4c(c3)OCO4)sc2n1
label 0

Write down the call the test reported for this compound. Item: O=C1C=CC(=O)c2c1nc1n2CCCC1
label 0

# next compound below
Write down the call the test reported for this compound. Item: COCCCNc1nc(NC(=O)c2ccc(F)cc2C)cc(-c2cccnc2)n1
label 0
